Quick reference: melting point of the listed items.
Endpoint Name: melting point

>>> assay_value("O=C(O)c1ccc(-c2ccnc(-c3ccc(C(F)(F)F)cc3)n2)cc1 [Compound 21]")
"> 300 °C"
>>> assay_value("CC(C)c1ccc(-c2ccnc(-c3ccc(C(=O)O)cc3)n2)cc1 [Compound 36]")
"243 to 245 °C"
>>> assay_value("COc1ccc(-c2ccnc(-c3ccc(C(=O)O)cc3)n2)cc1OC [Compound 57]")
"250 to 252 °C"
>>> assay_value("Cc1ccc(-c2nccc(-c3ccc(C(=O)O)cc3)n2)cc1 [Compound 10]")
"> 310 °C"
>>> assay_value("O=C(O)c1ccc(-c2nccc(-c3ccc(-n4ccnc4)cc3)n2)cc1 [Compound 41]")
"> 305 °C"

* * *

Endpoint Name: melting point

>>> assay_value("CN(C)c1ccc(-c2ccnc(-c3ccc(C(=O)O)cc3)n2)cc1")
"292 to 295 °C"
>>> assay_value("O=C(O)c1cccc(-c2nccc(-c3ccc(OC(F)(F)F)cc3)n2)c1")
"241 to 243 °C"
>>> assay_value("O=C(O)c1cccc(-c2nccc(-c3ccc4c(c3)OCCO4)n2)c1")
"239 to 241 °C"
>>> assay_value("O=C(O)c1ccc(-c2ccnc(-c3cccc(Cl)c3)n2)cc1")
"291 to 294 °C"
>>> assay_value("COc1ccc(-c2nccc(-c3ccc(C(=O)O)cc3)n2)cc1")
"> 300 °C"
>>> assay_value("O=C(O)c1ccc(-c2nccc(-c3cccc(C(F)(F)F)c3)n2)cc1")
"271 to 273 °C"
>>> assay_value("O=C(O)c1cccc(-c2ncnc(-c3ccc(C(F)(F)F)cc3)n2)c1")
"290 to 293 °C"
>>> assay_value("O=C(O)c1ccc(-c2ccnc(-c3ccccc3F)n2)cc1")
"> 300 °C"
>>> assay_value("COc1ccc(-c2ncnc(-c3ccc(C(=O)O)cc3)n2)cc1")
"> 300 °C"

* * *

Endpoint Name: melting point

>>> assay_value("O=C(O)c1ccc(-c2ccnc(-c3ccccc3)n2)cc1")
"> 300 °C"
>>> assay_value("O=C(O)c1cccc(-c2ncnc(-c3ccc(F)cc3)n2)c1")
"266 to 269 °C"
>>> assay_value("O=C(O)c1cccc(-c2nccc(-c3ccc(-c4ccccc4)cc3)n2)c1")
"296 to 299 °C"
>>> assay_value("O=C(O)c1ccc(-c2nccc(-c3ccccc3F)n2)cc1")
"234 to 236 °C"

* * *

# key: entry, value: melting point
Endpoint Name: melting point

>>> assay_value("Cc1ccc(-c2cc(-c3ccc(C(=O)O)cc3)ccn2)cc1")
"286 to 289 °C"
>>> assay_value("Cc1ccc(-c2ccnc(-c3cccc(C(=O)O)c3)n2)cc1")
"252 to 253 °C"
>>> assay_value("CCOc1ccc(-c2ncnc(-c3cccc(C(=O)O)c3)n2)cc1")
"269 to 272 °C"
>>> assay_value("Cc1cnc(-c2cccc(C(=O)O)c2)nc1-c1ccccc1F")
"279 to 281 °C"
>>> assay_value("Cc1ccc(-c2cncc(-c3ccc(C(=O)O)cc3)c2)cc1")
"260 to 262 °C"
>>> assay_value("O=C(O)c1ccc(-c2ccnc(-c3ccc(OC(F)(F)F)cc3)n2)cc1")
"299 to 302 °C"
>>> assay_value("O=C(O)c1cccc(-c2nccc(-c3ccc(C(F)(F)F)cc3)n2)c1")
"271 to 273 °C"
>>> assay_value("CC(C)c1ccc(-c2nccc(-c3cccc(C(N)=O)c3)n2)cc1")
"167 to 169 °C"
>>> assay_value("O=C(O)c1cccc(-c2nccc(-c3ccc(-n4ccnc4)cc3)n2)c1")
"> 310 °C"

* * *

Endpoint Name: melting point

>>> assay_value("O=C(O)c1ccc(-c2nccc(-c3ccc(OC(F)(F)F)cc3)n2)cc1 [Compound 34]")
"234 to 236 °C"
>>> assay_value("CC(C)(C)c1ccc(-c2nccc(-c3ccc(C(=O)O)cc3)n2)cc1 [Compound 17]")
"293 to 296 °C"
>>> assay_value("Cc1ccc(-c2ccnc(-c3ccc(C(=O)O)cc3)c2)cc1 [Compound 13, 4-(4-p-Tolyl-pyridin-2-yl)-benzoic acid]")
"288 to 291 °C"
>>> assay_value("Cc1cccc(-c2ccnc(-c3ccc(C(=O)O)cc3)n2)c1 [Compound 64]")
"220 to 222 °C"
>>> assay_value("O=C(O)c1ccc(-c2nccc(-c3ccc4c(c3)OCCO4)n2)cc1 [Compound 40]")
"272 to 274 °C"
>>> assay_value("O=C(O)c1ccc(-c2ccnc(-c3cccc(OC(F)(F)F)c3)n2)cc1 [Compound 19]")
"> 300 °C"
>>> assay_value("COc1cccc(-c2nccc(-c3ccc(C(=O)O)cc3)n2)c1 [Compound 16]")
"270 to 273 °C"
>>> assay_value("O=C(O)c1ccc(-c2ccnc(-c3ccc(Cl)cc3)n2)cc1 [Compound 22]")
"> 300 °C"
>>> assay_value("COc1ccc(-c2ncnc(-c3cccc(C(=O)O)c3)n2)cc1 [Compound 48]")
"307 to 309 °C"
>>> assay_value("COc1cccc(-c2ncnc(-c3cccc(C(=O)O)c3)n2)c1 [Compound 51]")
"227 to 229 °C"
>>> assay_value("Cc1ccc(-c2cc(-c3cccc(C(=O)O)c3)ncn2)cc1 [Compound 3]")
"201 to 203 °C"
>>> assay_value("O=C(O)c1ccc(-c2nccc(-c3ccc(Br)cc3)n2)cc1 [Compound 33]")
"302 to 305 °C"
>>> assay_value("O=C(O)c1ccc(-c2nccc(-c3ccc(C(F)(F)F)cc3)n2)cc1 [Compound 66]")
"282 to 285 °C"
>>> assay_value("O=C(O)c1cccc(-c2nccc(-c3cccc(F)c3)n2)c1 [Compound 74]")
"253 to 255 °C"
>>> assay_value("Cc1cccc(-c2ccnc(-c3cccc(C(=O)O)c3)n2)c1 [Compound 76]")
"217 to 219 °C"
>>> assay_value("COc1ccc(-c2ccnc(-c3cccc(C(=O)O)c3)n2)cc1 [Compound 71]")
"243 to 244 °C"
>>> assay_value("O=C(O)c1ccc(-c2ccnc(-c3ccc(F)cc3)n2)cc1 [Compound 18]")
"> 300 °C"
>>> assay_value("CC(C)c1ccc(-c2ccnc(-c3cccc(C(=O)O)c3)n2)cc1 [Compound 70]")
"242 to 244 °C"
>>> assay_value("O=C(O)c1ccc(-c2nccc(-c3cccc(F)c3)n2)cc1 [Compound 38]")
"249 to 252 °C"
>>> assay_value("COc1ccc(-c2ccnc(-c3cccc(C(=O)O)c3)n2)cc1OC [Compound 58]")
"240 to 243 °C"
>>> assay_value("O=C(O)c1cccc(-c2nccc(-c3ccc(Br)cc3)n2)c1 [Compound 68]")
"> 300 °C"
>>> assay_value("Cc1cc(-c2ccc(F)cc2)nc(-c2cccc(C(=O)O)c2)n1 [Compound 56]")
"305 to 307 °C"
>>> assay_value("Cc1ccccc1-c1nccc(-c2ccc(C(=O)O)cc2)n1 [Compound 26]")
"198 to 200 °C"
>>> assay_value("O=C(O)c1ccc(-c2ccnc(-c3ccccc3OC(F)(F)F)n2)cc1 [Compound 61]")
"258 to 261 °C"
>>> assay_value("O=C(O)c1ccc(-c2ccnc(-c3ccccc3C(F)(F)F)n2)cc1 [Compound 31]")
"251 to 252 °C"
>>> assay_value("O=C(O)c1cccc(-c2nccc(-c3ccccc3F)n2)c1 [Compound 72]")
"201 to 203 °C"
>>> assay_value("COc1ccc(-c2ccnc(-c3ccc(C(=O)O)cc3)n2)cc1 [Compound 37]")
"263 to 265 °C"
>>> assay_value("O=C(O)c1ccc(-c2ncnc(-c3ccc(F)cc3)n2)cc1 [Compound 47]")
"295 to 298 °C"
>>> assay_value("O=C(O)c1ccc(-c2nccc(-c3ccc(N4CCOCC4)cc3)n2)cc1 [Compound 67]")
"289 to 291 °C"
>>> assay_value("O=C(O)c1ccc(-c2ccnc(-c3cccc(F)c3)n2)cc1 [Compound 25]")
"300 to 303 °C"
>>> assay_value("O=C(O)c1ccc(-c2nccc(-c3ccc(-c4ccccc4)cc3)n2)cc1 [Compound 39]")
"293 to 296 °C"
>>> assay_value("Cc1ccc(-c2ccnc(-c3ccc(C(=O)O)cc3)n2)cc1 [Compound 35]")
"287 to 289 °C"
>>> assay_value("O=C(O)c1cccc(-c2nccc(-c3cccc(C(F)(F)F)c3)n2)c1 [Compound 77]")
"271 to 273 °C"
>>> assay_value("O=C(O)c1cccc(-c2ncnc(-c3cccc(F)c3)n2)c1 [Compound 49]")
"273 to 276 °C"
>>> assay_value("Cc1ccc(-c2ncnc(-c3ccc(C(=O)O)cc3)n2)cc1 [Compound 46]")
"288 to 290 °C"
>>> assay_value("Cc1ccc(-c2cccc(-c3ccc(C(=O)O)cc3)n2)cc1 [Compound 14, 4-(6-p-Tolyl-pyridin-2-yl)-benzoic acid]")
"283 to 284 °C"
>>> assay_value("CN(C)c1ccc(-c2ccnc(-c3cccc(C(=O)O)c3)n2)cc1 [Compound 60]")
"281 to 283 °C"
